Recorded measurements of melting point, one per entry

Sample records with melting point:
>  <COMPOUND>
NS(=O)(=O)c1ccc(N2CCN(CC3OCCc4ccccc43)CC2)cc1 (racemic)

>  <REPORTED_PROPERTY>
melting point

>  <OBSERVED_RESULT>
218 °C

$$$$
>  <COMPOUND>
COc1nc2ccc(Br)cc2c2c1Cc1ccccc1-2

>  <REPORTED_PROPERTY>
melting point

>  <OBSERVED_RESULT>
150 to 152 °C

$$$$
>  <COMPOUND>
CS(=O)(=O)c1ccc(-c2cnn(-c3cccc(Cl)c3)c(=O)c2Sc2ccccn2)cc1

>  <REPORTED_PROPERTY>
melting point

>  <OBSERVED_RESULT>
110 to 114 °C

$$$$
>  <COMPOUND>
COc1ccc(C2=NN(C3CCN(S(=O)(=O)c4ccc(C)cc4)CC3)C(=O)CC2)cc1OC

>  <REPORTED_PROPERTY>
melting point

>  <OBSERVED_RESULT>
179 to 184 °C

$$$$
>  <COMPOUND>
Fc1ccc(-c2cnn(CCC#Cc3ccccn3)n2)cc1

>  <REPORTED_PROPERTY>
melting point

>  <OBSERVED_RESULT>
83.5 to 84.5 °C

$$$$
>  <COMPOUND>
COC(=O)C1(Cl)C[C@H](OC(C)=O)[C@@H](NC(C)=O)[C@H]([C@H](OC(C)=O)[C@@H](COC(C)=O)OC(C)=O)O1 (stereo not given in full)

>  <REPORTED_PROPERTY>
melting point

>  <OBSERVED_RESULT>
116 to 118 °C

$$$$
>  <COMPOUND>
COc1cc(C=O)ccc1OCCCCCCO

>  <REPORTED_PROPERTY>
melting point

>  <OBSERVED_RESULT>
55 to 56 °C

$$$$
>  <COMPOUND>
CC(C)c1ccc(S(=O)(=O)c2ccccc2)c(C(C)C)c1

>  <REPORTED_PROPERTY>
melting point

>  <OBSERVED_RESULT>
105 to 107 °C

$$$$
>  <COMPOUND>
CCOC(=O)/C(=N\OCC(=O)N(CC)CC)c1csc(N)n1

>  <REPORTED_PROPERTY>
melting point

>  <OBSERVED_RESULT>
161 °C

$$$$
>  <COMPOUND>
Cc1cc(NCc2ccc3c(c2)OCO3)nc(SCC#N)n1

>  <REPORTED_PROPERTY>
melting point

>  <OBSERVED_RESULT>
115 to 118 °C

$$$$

Ask | Please give the measured melting point for this compound: `CC(=O)NNC(=O)c1cc2cccc(NS(=O)(=O)c3cccs3)c2[nH]1`
Reply | 254 to 256 °C

Ask | Can you look up the measured melting point of `CC(C)C[C@H](NC(=O)CCc1ccccc1)C(=O)O` for me?
Reply | 129 to 130 °C

Ask | Any idea what its melting point is? The compound is `C#CCn1c(C#N)ccc1-c1ccc2c(c1)C(C)(C)OC(=O)N2`
Reply | 222 to 224 °C

Ask | Query: melting point; subject: O=C(O)C(Cc1ccc(OCCn2c(-c3ccccc3)nc3ccccc32)cc1)n1cccc1 (stereo not given)
Reply | 210 to 212 °C

// provenance: a melting point compilation (Tetko et al.; mined from patent text by program, amines drawn as free bases though some values may be those of a salt)
